# Test System: T1, B-cat-Halo (UniProt P35222 2-781)
# T1 sequence (looked up): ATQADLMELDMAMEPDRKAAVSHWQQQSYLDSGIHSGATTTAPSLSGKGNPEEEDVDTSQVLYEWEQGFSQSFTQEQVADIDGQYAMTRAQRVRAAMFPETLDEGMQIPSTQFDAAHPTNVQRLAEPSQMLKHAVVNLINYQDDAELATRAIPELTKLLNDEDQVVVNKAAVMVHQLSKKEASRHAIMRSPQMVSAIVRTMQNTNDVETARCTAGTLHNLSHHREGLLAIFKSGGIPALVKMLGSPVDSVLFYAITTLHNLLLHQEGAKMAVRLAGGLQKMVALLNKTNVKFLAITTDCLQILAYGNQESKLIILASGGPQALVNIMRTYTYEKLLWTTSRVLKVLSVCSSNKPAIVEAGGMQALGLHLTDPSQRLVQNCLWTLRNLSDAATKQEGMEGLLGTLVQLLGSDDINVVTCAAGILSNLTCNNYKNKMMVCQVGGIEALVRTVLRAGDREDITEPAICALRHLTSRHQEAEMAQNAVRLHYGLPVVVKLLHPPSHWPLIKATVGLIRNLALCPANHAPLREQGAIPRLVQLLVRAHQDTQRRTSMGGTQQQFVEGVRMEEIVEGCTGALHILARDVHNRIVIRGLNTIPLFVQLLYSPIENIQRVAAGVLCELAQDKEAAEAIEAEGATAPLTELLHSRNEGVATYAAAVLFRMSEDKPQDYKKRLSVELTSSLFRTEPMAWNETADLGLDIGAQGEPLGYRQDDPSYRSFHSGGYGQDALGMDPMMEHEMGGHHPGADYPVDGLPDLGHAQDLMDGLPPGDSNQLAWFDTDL
# Test Details: cell-based or functional assay
Starred links: 1 amine or outer side, 2 acyl side, 3 side chain; linkers in the order of their positions; H or OH if unused. Positions of bridges follow the written chain, without caps; N, C: chain ends. Non-standard residues stand in square brackets, D forms with d. Primed or numbered codes have the meaning given here. PyrS2 = (S)-3-amino-1-((pent-4-en-1-yloxy)carbonyl)pyrrolidine-3-carboxylic acid, C=CCCCOC(=O)N1CC[C@@](N[*:1])(C(=O)[*:2])C1; B5(19) = 2-amino-2-(pent-4-en-1-yl)hept-6-enoic acid (bis(4-pentenyl)glycine), C=CCCCC(CCCC=C)(N[*:1])C(=O)[*:2]; Bta = N[C@@H](Cc1csc2ccccc12)C(=O)O; αAllylPro = C=CC[C@@]1(C(=O)O)CCCN1; tBuAla = CC(C)(C)C[C@H](N)C(=O)O; 3Thi = N[C@@H](Cc1ccsc1)C(=O)O; hSer = N[C@@H](CCO)C(=O)O
Outcome Measure: NanoBRET Abs IC50

# input Dear colleague, I am looking for the recorded NanoBRET Abs IC50 of the following binder: Ac-[αAllylPro]D[tBuAla][B5(19)]DHAAF[hSer][PyrS2][3Thi][Bta]Q-NH2 (staple 1-4, 4-11; not fully specified; printed as Ac-PL3-Asp-Npg-B5-Asp-His-Ala-Ala-Phe-Hse-PyrS2-3Thi-BztA-Gln-NH2) [I-1793]
# output > 20 µM
